Test: NCI Yeast Anticancer Drug Screen. Data for the cln2 rad14 strain (AID 165);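 note: 0% = growth equal to vehicle treated cultures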
Conditions: S. cerevisiae cln2 rad14 strain, at 50.0 µM, active compounds read high
This is part of a sample that, as a whole, favours compounds with a hit. Of some 79,000 tested, about 15% had one in any assay.
Hi there, I'd appreciate the recorded growth inhibition for every entry that follows.
Quick reminder: number only, in %, skip the unit.

Consider the compound CC(=O)/C=C/CCC(=O)/C=C/C(=O)OC(CCC(=O)/C=C/C(=O)O)CC(C)=O (stereo unspecified) and give its measured growth inhibition.
19.1

Thanks! And OC(C(=S)N1CCCC1)(c1ccccc1)c1ccccc1 ?
8.45

Thanks! And CN(C)Cc1cc(C(=O)/C=C/c2c(F)cccc2Cl)cc(CN(C)C)c1O ?
1.05

Thanks! And NC(=O)C(CO)NC(=O)c1ccc[n+](Cc2ccccc2)c1 (stereo unspecified) ?
-4.5

Thanks! And O=C1CCCc2cc3c(cc21)CC1(C3)Cc2cc3c(cc2C1)C(=O)CCC3 ?
-10.3

Thanks! And O=C(O)/C1=C/CCC(C(=O)O)CCC1 (stereo unspecified) ?
-44.6

Thanks! And CC1(N)CCC(C(C)(C)N)CC1 (stereo unspecified) ?
-30.3

Thanks! And Cc1cc(C)c2c(SCc3ccc(Cl)cc3Cl)nc(N)nc2n1 ?
-27.9

Thanks! And CCOC(=O)c1cc(=O)[nH]c(N)n1 ?
-38.2

Thanks! And N#CC(c1ccccc1)c1ccccn1 (stereo unspecified) ?
-9.2

Thanks! And CN(/N=C/C=N/N(C)C1=NCCN1)C1=NCCN1 ?
8.05

Thanks! And O=C(NCc1cccnc1)C1COc2cc(-c3cc(=O)c4ccccc4o3)ccc2O1 (stereo unspecified) ?
-5.25

Thanks! And CO[C@@]12C[C@@H](C)C3=CCC(C)=C3CC1=C(C)C(=O)O2 ?
2.9

Thanks! And Cc1ccc(SS(=O)(=O)c2ccc([N+](=O)[O-])cc2)cc1 ?
-29.4

Thanks! And O=C(Cc1ccccc1)NCO ?
-52.4

Thanks! And CC12CCC(O)CC1=CCC1C2CCC2(C)C1CCC21SCCS1 (stereo unspecified) ?
14.4

Thanks! And O=C1CC(c2ccccc2)=NCCN1 ?
-3.55

Thanks! And CC1(C)OC2C(COCc3ccccc3)=CC(n3ccc(=O)[nH]c3=O)C2O1 (stereo unspecified) ?
-0.7

Thanks! And OC(CNC1CC2CCC1C2)COc1cccc2ccccc12 (stereo unspecified) ?
52.4

Thanks! And CN(C)CC1CCCCCC(Br)C1O (stereo unspecified) ?
-24.8

Thanks! And CCN(CC)CCC1CC/C(=C\c2ccc(OC)cc2)C1=O (stereo unspecified) ?
21.1

Thanks! And CCOC(=O)C(=O)Nc1ccc2cc(OC)ccc2c1C#N ?
35.2

Thanks! And Cc1ccc(P(=O)(O)O)cc1C ?
-2.1

Thanks! And COC(=O)CCSCC(N)C(=O)O (stereo unspecified) ?
-39.5

Thanks! And ONc1cnc2ccccc2n1 ?
-49.2

Thanks! And Cn1cnc(=O)c2n[nH]nc21 ?
-1.45

Thanks! And COc1nc(NC2OC(CO)C(O)C(O)C2O)c(Br)c(=O)n1C (stereo unspecified) ?
-4.1

Thanks! And Cc1ccc(-c2cc(O)c3nc4ccccc4n3c2)cc1 ?
-22.9

Thanks! And C/C(CC(C)C)=N/Nc1ccc([N+](=O)[O-])cc1[N+](=O)[O-] ?
-42.6

Thanks! And CC(=O)OCCOCNC(=S)N/N=C/c1ccccn1 ?
6.7

Thanks! And O=C1c2ccccc2C(=O)N1N1C(=O)c2ccccc2C1=O ?
14

Thanks! And Cc1ccc(Oc2cc(C)ccc2P(=O)(O)O)cc1 ?
26.1

Thanks! And CC(=O)OCc1nc2ncnc(N)c2[nH]1 ?
-52.4

Thanks! And CCCN(CCCC(NC(C)=O)C(=O)NCc1ccccc1)C(=O)NC (stereo unspecified) ?
1.2

Thanks! And NC(=O)C1CCN(S(=O)(=O)c2ccccc2)CC1 ?
-37.6

Thanks! And CCOC(=O)CNC(=O)C(Cc1cnc[nH]1)NC(=O)OCc1ccccc1 (stereo unspecified) ?
-14.6

Thanks! And Cc1c2occc2cc2c1oc(=O)c1cnccc12 ?
21.2

Thanks! And CN/N=C(\C(=O)Nc1ccc(C)c(C)c1)C(C(=O)OC)c1nc2ccc([N+](=O)[O-])cc2[nH]c1=O (stereo unspecified) ?
19.3

Thanks! And C/C(CCn1[nH]c(=O)ccc1=O)=N\O ?
-12.1

Thanks! And COC(=O)C1=NC(=O)C(C#N)=C(C(=O)OC)C1(C(=O)c1ccc(OC)cc1)c1ccc(OC)cc1 (stereo unspecified) ?
13.8

Thanks! And N#CC(CC(=O)c1ccccc1)c1ccc(Cl)cc1 (stereo unspecified) ?
-79.2

Thanks! And Clc1ccc(-c2onc3ccc(Br)cc23)cc1 ?
-17.9

Thanks! And CN1CCN(C(=O)NC(C)(C)C)CC1 ?
-88.8

Thanks! And CC(=O)Cc1ccc([N+](=O)[O-])cc1 ?
-41.7

Thanks! And COc1ccc([N+](=O)[O-])cc1N=NN(C)C ?
-6.3

Thanks! And CCN(CC)c1nc(N(C)C)nc(N(C)C)n1 ?
-7.25

Thanks! And CSc1ncc(C#N)c2nc(-c3ccccc3)nn12 ?
8.1

Thanks! And O=[N+]([O-])/C(Cl)=C(\NCCO)C(Cl)=C(Cl)Cl ?
17.1

Thanks! And CC1CC(=O)Nc2ncnc(N)c21 (stereo unspecified) ?
-4.7

Thanks! And N#Cc1c(O)c(-c2ccccc2)c(=O)n2c1[nH]c1ccccc12 ?
14.9

Thanks! And CCCCCCCCN1CSC(=S)N(c2ccc3[nH]c(=S)sc3c2)C1 ?
27.9

Every entry's value here was drawn from PubChem BioAssay (NCI).
